- Test system: SK-MEL-5 melanoma
- assay_protocol: NCI-60 one-dose screen, 48 h
- particulars: 10 µM unless noted
Compounds without any hit were thinned out: in the full panel of roughly 83,000, 20% have a hit. Activity calls are given as the source filed them. How the source made its calls: active means growth percent below 10; inactive means the rest.
Labels: TRUE = active, FALSE = inactive

1) CCc1ccc(-c2ccc(NC3CCCCCC3)nn2)cc1S(N)(=O)=O; FALSE
2) Clc1cc(Br)ccc1-c1ccc(CNCC2CCNCC2)o1; FALSE
3) N#Cc1c(N)n(C2OC(CO)C(O)C2O)c2ncnc(N)c12 (stereo not given); TRUE
4) CCCCCCCCCCCC1=NC(C)(C)CN1C(C)(C)CO; TRUE
5) O=C(N=Nc1c(Cl)c(O)c2ccccc2c1O)C(=O)Nc1cccc(C(F)(F)F)c1; FALSE
6) CC(=O)[C@@]1(O)[C@H](C)C[C@H]2[C@@H]3C=C(C)C4=Cc5c(cnn5-c5ccccc5)C[C@]4(C)[C@H]3[C@@H](O)C[C@@]21C; FALSE
7) COc1cc2c(cc1OCCCOc1cc3c(cc1OC)C(=O)N1CCC[C@H]1C=N3)C=CC(C)(C)O2; FALSE
8) COc1ccc(-c2nsc3c2NC(=O)CC3c2ccc3c(c2)OCO3)cc1 (stereo not given); FALSE
9) Cc1cc(C#Cc2ccccc2)ccc1-n1c(/C=C/c2ccc(F)cc2)nc2ccccc2c1=O; FALSE
10) CCCCOc1ncnc2nc[nH]c12; FALSE

###

- System: HT29 colon
- assay_protocol: NCI-60 one-dose screen, 48 h
- particulars: 10 µM unless noted
About 83,000 compounds went through this panel and 20% of them were active in at least one assay; those are over-represented in the sample as a whole. The source made the active and inactive calls. The calls were made as follows: active = growth percent below 10; inactive = the rest.
Labels: active, inactive

1) COc1ccc(C(=O)C(C#N)c2cc(OC)c(OC)c(OC)c2)cc1 (stereo not drawn); inactive
2) N=C(N)c1ccc(-c2ccc(-c3cc(Cl)cc(Cl)c3)o2)nc1; active
3) COc1ccc2c(c1)N(CCO)C1=C(C(=O)OC1)C2c1cccc(Br)c1 (stereo not drawn); active
4) CN1CCN(Cc2ccc(NC(=O)c3cncc(C#Cc4cnc5cccnn45)c3)cc2C(F)(F)F)CC1; active
5) Clc1cn2cc(-c3ccc(Cl)c(Cl)c3Cl)nc2s1; inactive
6) COc1ccc(C(=O)C(CN(C)C)c2ccccc2)cc1 (stereo not drawn); inactive
7) O=c1[nH]c2cc(Cl)c(Cl)cc2o1; inactive
8) O=c1[nH]c2ccccc2n2cc3cccnc3c12; inactive
9) CCCCCCCCCCCCCC[N+](C)(C)CCCCCCCCCCCCCC; inactive
10) CCOC(=O)NNc1cccc(Cl)c1; inactive
11) O=C(O)c1ccccc1N=Cc1ccccc1; inactive
12) CCOC(=O)C1=C(C)NC(SCc2nnc(-c3ccc(Cl)cc3)o2)=NC1c1ccc(Cl)cc1 (stereo not drawn); inactive
13) CCN1CCN(Cc2ccc(NC(=O)c3nc4ccc5[nH]ncc5c4c4c3CCCC4)cc2C(F)(F)F)CC1; active
14) COc1ccc(C2CC(c3ccc(Nc4ccnc5cc(Cl)ccc45)cc3)=NN2c2ccccc2)cc1 (stereo not drawn); inactive
15) COc1cccc(NC(=O)c2c(-c3ccccc3)c(-c3ccccc3)n[nH]c2=O)c1; inactive
16) CC1=NOCC(=O)N1; inactive
17) COc1ccc(NC(=O)/C=C/c2ccc(NC(=O)N3CCCC3)cc2)cn1; inactive
18) CC(C)c1ccc(Cn2ccc3c4c(N)nc(NC5CC5)nc4ccc32)cc1; active
19) CC1=C(C(=O)Nc2ccc(F)cc2)C(c2ccc(C)cc2)C2=C(CC(C)(C)CC2=O)N1 (stereo not drawn); inactive
20) Clc1ccc(Nc2ncnc3c2sc2ncccc23)cc1; inactive
21) CCCCn1c(C)nc2ccc(Nc3nc(Cl)nc4nc[nH]c34)cc21; inactive
22) COc1cccc(NC(=O)[C@H](C(C)C)n2c(=O)[nH]c3ccccc3c2=O)c1; inactive
23) CCN(CC)CCC(CNc1ccnc2cc(Cl)ccc12)c1ccc(O)cc1 (stereo not drawn); inactive

The measured values listed here are drawn from PubChem BioAssay (NCI).
